pIC50: −log10 of the molar value.
Listing of pIC50 toward PIK3CG (human) (UniProt P48736), each taken from a published source.

Here is how some molecules turned out for pIC50.
{"columns": ["MOLECULE", "pIC50"],
 "data": [
  ["C[C@H](NC(=O)c1c(N)nn2cccnc12)c1cc2cccc(CNCC3CCCO3)c2c(=O)n1-c1ccccc1 (stereo partly shown)", "5.00 to 6.00"],
  ["Cn1cc(/C=C2\\Oc3ccc(C(=O)O)cc3C2=O)c2c(N3CC4CCC(C3)O4)ccnc21", 5.52],
  ["Cc1nc2c(N[C@@H](C)c3cc4cccc(-c5cnn(C)c5)c4c(=O)n3-c3ccccc3)ncnc2s1", "5.00 to 6.00"],
  ["C=CC(=O)NCC(=O)NCC(=O)N1CCN(Cc2cc3nc(-c4cccc5[nH]ncc45)nc(N4CCOCC4)c3s2)CC1", "< 6.00"],
  ["COc1cc(-c2cccc3nc([C@H](C)NC(=O)c4c(N)nn5cccnc45)n(-c4ccccc4)c(=O)c23)ccn1", "> 7.00"]
]}

Request: Item under review: C[C@H](NC(=O)c1c(N)nn2cccnc12)c1cc2cccc(-c3ccncc3)c2c(=O)n1-c1ccccc1 . Reported pIC50?
Result: 6.00 to 7.00

Request: Let us now turn to Nc1nc2cc(-c3ccc4ncc(C(=O)N5CC[C@H](F)C5)n4c3)ccc2o1
Result: > 6.00
